For each record, write down the corresponding tissue to tissue ratio at 4 h.
- EXPERIMENT: in vivo
- Design: species or system BALB/c nu/nu female mice
- DETAILS: female, BALB/c nu/nu, mouse, iv, 40 pmol, total radioactivity, Tumor-to-pancreas ratio

Value of tissue to tissue ratio at 4 h reported for the molecule CCNC(=O)[C@H](CC(C)C)NC(=O)[C@H](Cc1c[nH]cn1)NC(=O)CN(C)C(=O)[C@@H](NC(=O)[C@H](C)NC(=O)[C@H](Cc1c[nH]c2ccccc12)NC(=O)[C@H](CCC(N)=O)NC(=O)[C@@H](Cc1ccccc1)NC(=O)COCC(=O)Nc1ccc(CNC(=O)[C@@H](CCCNC(=N)N)NC(=O)CCC(C(=O)O)N2CCN(CC(=O)O)CCN(CC(=O)O)CCN(CC(=O)O)CC2)cc1)C(C)C (stereo partly drawn) [[^111In]In-AU-SAR-M3, [^111In]In-[DOTAGA-DArg]AU-SAR-M1, metal not drawn] is 14

Lab note: CCNC(=O)[C@H](CC(C)C)NC(=O)[C@H](Cc1c[nH]cn1)NC(=O)CN(C)C(=O)[C@@H](NC(=O)[C@H](C)NC(=O)[C@H](Cc1c[nH]c2ccccc12)NC(=O)[C@H](CCC(N)=O)NC(=O)[C@@H](Cc1ccccc1)NC(=O)COCC(=O)Nc1ccc(CNC(=O)CCC(C(=O)O)N2CCN(CC(=O)O)CCN(CC(=O)O)CCN(CC(=O)O)CC2)cc1)C(C)C (stereo partly drawn) [[^111In]In-AU-SAR-M1, metal not drawn] gave tissue to tissue ratio at 4 h of 9

Reported tissue to tissue ratio at 4 h ( CCNC(=O)[C@H](CC(C)C)NC(=O)[C@H](Cc1c[nH]cn1)NC(=O)CN(C)C(=O)[C@@H](NC(=O)[C@H](C)NC(=O)[C@H](Cc1c[nH]c2ccccc12)NC(=O)[C@H](CCC(N)=O)NC(=O)[C@@H](Cc1ccccc1)NC(=O)COCC(=O)Nc1ccc(CNC(=O)[C@H](CCCNC(=N)N)NC(=O)CCC(C(=O)O)N2CCN(CC(=O)O)CCN(CC(=O)O)CCN(CC(=O)O)CC2)cc1)C(C)C (stereo partly drawn) [[^111In]In-AU-SAR-M2, [^111In]In-[DOTAGA-Arg]AU-SAR-M1, metal not drawn] ) = 1.4

---

Field: tissue to tissue ratio at 4 h. Provide a value for each of the molecules that follow.
- EXPERIMENT: in vivo
- Parameters: species or system BALB/c nu/nu female mice
- DETAILS: female, BALB/c nu/nu, mouse, iv, 40 pmol, total radioactivity, Tumor-to-blood ratio
Just the number, please, no unit attached.

Value of tissue to tissue ratio at 4 h reported for the molecule CCNC(=O)[C@H](CC(C)C)NC(=O)[C@H](Cc1c[nH]cn1)NC(=O)CN(C)C(=O)[C@@H](NC(=O)[C@H](C)NC(=O)[C@H](Cc1c[nH]c2ccccc12)NC(=O)[C@H](CCC(N)=O)NC(=O)[C@@H](Cc1ccccc1)NC(=O)COCC(=O)Nc1ccc(CNC(=O)[C@H](CCCNC(=N)N)NC(=O)CCC(C(=O)O)N2CCN(CC(=O)O)CCN(CC(=O)O)CCN(CC(=O)O)CC2)cc1)C(C)C (stereo partly drawn) [[^111In]In-AU-SAR-M2, [^111In]In-[DOTAGA-Arg]AU-SAR-M1, metal not drawn] is 159

So, CCNC(=O)[C@H](CC(C)C)NC(=O)[C@H](Cc1c[nH]cn1)NC(=O)CN(C)C(=O)[C@@H](NC(=O)[C@H](C)NC(=O)[C@H](Cc1c[nH]c2ccccc12)NC(=O)[C@H](CCC(N)=O)NC(=O)[C@@H](Cc1ccccc1)NC(=O)COCC(=O)Nc1ccc(CNC(=O)[C@@H](CCCNC(=N)N)NC(=O)CCC(C(=O)O)N2CCN(CC(=O)O)CCN(CC(=O)O)CCN(CC(=O)O)CC2)cc1)C(C)C (stereo partly drawn) [[^111In]In-AU-SAR-M3, [^111In]In-[DOTAGA-DArg]AU-SAR-M1, metal not drawn] ? Its tissue to tissue ratio at 4 h was 147

Entry CCNC(=O)[C@H](CC(C)C)NC(=O)[C@H](Cc1c[nH]cn1)NC(=O)CN(C)C(=O)[C@@H](NC(=O)[C@H](C)NC(=O)[C@H](Cc1c[nH]c2ccccc12)NC(=O)[C@H](CCC(N)=O)NC(=O)[C@@H](Cc1ccccc1)NC(=O)COCC(=O)Nc1ccc(CNC(=O)CCC(C(=O)O)N2CCN(CC(=O)O)CCN(CC(=O)O)CCN(CC(=O)O)CC2)cc1)C(C)C (stereo partly drawn) [[^111In]In-AU-SAR-M1, metal not drawn] — recorded tissue to tissue ratio at 4 h = 160
